testedSystem: T1, canine OSMR on canine cells (canine, UniProt A0A8I3MI11 28-967)
T1 sequence: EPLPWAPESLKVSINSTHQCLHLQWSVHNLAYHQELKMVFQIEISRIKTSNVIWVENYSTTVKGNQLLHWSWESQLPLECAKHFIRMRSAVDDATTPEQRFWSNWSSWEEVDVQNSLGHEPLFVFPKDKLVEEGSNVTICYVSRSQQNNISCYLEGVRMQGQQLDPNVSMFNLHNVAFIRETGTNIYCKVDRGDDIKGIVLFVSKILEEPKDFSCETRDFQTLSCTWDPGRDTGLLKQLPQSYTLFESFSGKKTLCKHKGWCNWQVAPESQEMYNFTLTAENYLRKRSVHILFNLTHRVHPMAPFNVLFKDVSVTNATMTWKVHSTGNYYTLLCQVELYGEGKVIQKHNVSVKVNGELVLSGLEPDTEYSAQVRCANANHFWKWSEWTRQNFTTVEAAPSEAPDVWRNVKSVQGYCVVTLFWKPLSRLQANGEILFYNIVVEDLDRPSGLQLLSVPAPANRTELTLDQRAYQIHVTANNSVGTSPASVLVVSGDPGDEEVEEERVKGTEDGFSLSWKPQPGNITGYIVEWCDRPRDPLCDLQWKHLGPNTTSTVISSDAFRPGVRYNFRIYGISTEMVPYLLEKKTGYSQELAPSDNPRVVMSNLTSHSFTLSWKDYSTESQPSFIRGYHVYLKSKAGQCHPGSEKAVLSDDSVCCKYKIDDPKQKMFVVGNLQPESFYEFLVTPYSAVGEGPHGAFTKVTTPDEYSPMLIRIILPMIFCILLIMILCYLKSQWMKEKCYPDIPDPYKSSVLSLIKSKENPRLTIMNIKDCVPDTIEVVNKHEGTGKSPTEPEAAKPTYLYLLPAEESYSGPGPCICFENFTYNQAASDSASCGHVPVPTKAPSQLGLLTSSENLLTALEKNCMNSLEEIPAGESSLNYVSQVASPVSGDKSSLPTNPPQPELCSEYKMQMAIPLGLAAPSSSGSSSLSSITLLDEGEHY
methodDescription: cell-based or functional assay
propertyLabel: % inh of canine IL-31 pSTAT3 signaling, canine DH82 cells (% inh)

[[record]]
binder = "Mu_19F07 (antibody, V domains shown, Mouse hybridoma IgG) VH: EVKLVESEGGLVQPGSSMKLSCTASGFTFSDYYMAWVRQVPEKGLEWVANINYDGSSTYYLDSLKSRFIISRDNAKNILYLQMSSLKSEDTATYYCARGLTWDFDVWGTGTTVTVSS VL: DIVMTQSHKFMSPSVGDRVSITCKASQDVDTAVAWYQQKPGQSPKLLIYLASTRHTGVPDRFTGSGSGTDFTLTISNVQSEDLADYFCQQYSRFPLTFGAGTKLELK"
unittext = "% inh"
observedresult = 87

